Origin of measurements: PubChem BioAssay AID1963848

Kindly state viability, T/C for each of the entries shown.
# System: 379773-124-R-J2-PDC spheroid viability
# Assay Comment: Anticancer human tumor 379773-124-R-J2-PDC patient-derived endometrial carcinoma cell line growth inhibition [POLQ]
# Recorded Conditions: second compound 0.0316 µM; first compound 1 µM; stronger effect = lower value; spheroids with HUVEC and MSC
Answers are plain numbers, in %.

Here is how some molecules turned out for viability, T/C.
INPUT: Which measured viability, T/C value corresponds to CCc1c2c(nc3ccc(O)cc13)-c1cc3c(c(=O)n1C2)COC(=O)[C@]3(O)CC + Cc1cccc(N(C)C(=O)C2C(O)CCN2c2nc(C)cc(C(F)(F)F)c2C#N)c1 ?
OUTPUT: 0.39

INPUT: Which measured viability, T/C value corresponds to O=C(Nc1ccc(O)c(NS(=O)(=O)c2ccc(F)cc2)c1)c1ccc(-c2ccccc2)cc1 + Nc1ccc(C#CCN(C(=O)Cc2ncc(C(F)(F)F)cc2C(F)(F)F)c2ccc(F)cc2)nn1 ?
OUTPUT: 91.5

INPUT: Which measured viability, T/C value corresponds to CCc1cc2c(N3CCc4c(cc(Cn5ccnc5)cc4-c4cn(C)nc4C(F)(F)F)C3=O)cc(C)nc2c(OC)n1 + Nc1ccc(C#CCN(C(=O)Cc2ncc(C(F)(F)F)cc2C(F)(F)F)c2ccc(F)cc2)nn1 ?
OUTPUT: 60.9

INPUT: Which measured viability, T/C value corresponds to CNCc1ccc(-c2[nH]c3cc(F)cc4c3c2CCNC4=O)cc1 + Cc1cccc(N(C)C(=O)C2C(O)CCN2c2nc(C)cc(C(F)(F)F)c2C#N)c1 ?
OUTPUT: 83.2

INPUT: Which measured viability, T/C value corresponds to COc1cccc(OCCCN)c1-c1cc(Nc2cnc(C#N)cn2)n[nH]1 + Nc1ccc(C#CCN(C(=O)Cc2ncc(C(F)(F)F)cc2C(F)(F)F)c2ccc(F)cc2)nn1 ?
OUTPUT: 1.66

Dear reader, for each entry below, please note its viability, T/C.
1. Nc1ccn(C2OC(CO)C(O)C2(F)F)c(=O)n1 (stereo unspecified) + COC1C(OC(N)=O)C(O)C(Oc2ccc3c(O)c(NC(=O)c4ccc(O)c(CC=C(C)C)c4)c(=O)oc3c2C)OC1(C)C
2. COc1cc2cc(C(=O)CCC(=O)O)sc2cc1OC + Cc1cccc(N(C)C(=O)C2C(O)CCN2c2nc(C)cc(C(F)(F)F)c2C#N)c1

OUTPUT:
10.4
89.3

Dear reader, for each entry below, please note its viability, T/C.
1. C=CCn1c(=O)c2cnc(Nc3ccc(N4CCN(C)CC4)cc3)nc2n1-c1cccc(C(C)(C)O)n1 + Nc1ccc(C#CCN(C(=O)Cc2ncc(C(F)(F)F)cc2C(F)(F)F)c2ccc(F)cc2)nn1
2. COc1cc(C2c3cc4c(cc3C(OC3OC5COC(C)OC5C(O)C3O)C3COC(=O)C23)OCO4)cc(OC)c1O (stereo unspecified) + Cc1cccc(N(C)C(=O)C2C(O)CCN2c2nc(C)cc(C(F)(F)F)c2C#N)c1
3. CCc1c2c(nc3ccc(O)cc13)-c1cc3c(c(=O)n1C2)COC(=O)[C@]3(O)CC + Nc1ccc(C#CCN(C(=O)Cc2ncc(C(F)(F)F)cc2C(F)(F)F)c2ccc(F)cc2)nn1
4. CNCc1ccc(-c2[nH]c3cc(F)cc4c3c2CCNC4=O)cc1 + COC1C(OC(N)=O)C(O)C(Oc2ccc3c(O)c(NC(=O)c4ccc(O)c(CC=C(C)C)c4)c(=O)oc3c2C)OC1(C)C

OUTPUT:
1. 2.92
2. 56.5
3. 1.03
4. 74.5

Dear reader, for each entry below, please note its viability, T/C.
1. CC1COCCN1c1cc(C2(O)CC3CCC(C2)O3)c2cnn(-c3ccn[nH]3)c2n1 (stereo unspecified) + COC1C(OC(N)=O)C(O)C(Oc2ccc3c(O)c(NC(=O)c4ccc(O)c(CC=C(C)C)c4)c(=O)oc3c2C)OC1(C)C
2. CCCS(=O)(=O)Nc1ccc(F)c(C(=O)c2c[nH]c3ncc(-c4ccc(Cl)cc4)cc23)c1F + COC1C(OC(N)=O)C(O)C(Oc2ccc3c(O)c(NC(=O)c4ccc(O)c(CC=C(C)C)c4)c(=O)oc3c2C)OC1(C)C
3. COc1cc2cc(C(=O)CCC(=O)O)sc2cc1OC + Nc1ccc(C#CCN(C(=O)Cc2ncc(C(F)(F)F)cc2C(F)(F)F)c2ccc(F)cc2)nn1
4. COc1ccc([C@@H](O)c2cc(-c3ncnc4cc(N5CCOCC5)ccc34)c(F)cc2Cl)nn1 + Nc1ccc(C#CCN(C(=O)Cc2ncc(C(F)(F)F)cc2C(F)(F)F)c2ccc(F)cc2)nn1
5. O=C(c1cc(Cc2n[nH]c(=O)c3ccccc23)ccc1F)N1CCN(C(=O)C2CC2)CC1 + COC1C(OC(N)=O)C(O)C(Oc2ccc3c(O)c(NC(=O)c4ccc(O)c(CC=C(C)C)c4)c(=O)oc3c2C)OC1(C)C
6. CC(C)n1c(=O)n(C)c2cnc3cc(F)c(-c4ccc(OCCCN5CCCCC5)nc4)cc3c21 + Cc1cccc(N(C)C(=O)C2C(O)CCN2c2nc(C)cc(C(F)(F)F)c2C#N)c1

OUTPUT:
1. 10.8
2. 87.9
3. 93.6
4. 83.8
5. 82.4
6. 77.9

* * *

# Tested on: 379773-124-R-J2-PDC spheroid viability
# Assay Comment: Anticancer human tumor 379773-124-R-J2-PDC cell line growth inhibition [POLQ]; active = viability on the fitted dose curve at most 10% of control; inactive = the rest;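 further: spheroids exposed to drugs for seven days before readout; percent viability relative to DMSO vehicle control taken as 100%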
# Recorded Conditions: second compound 0.0316 µM; first compound 1 µM; spheroids with HUVEC and MSC
Entry note: the call must match one of active, inactive

Use the examples below as a reference point.
INPUT: Hi, do you know how COc1cccc(OCCCN)c1-c1cc(Nc2cnc(C#N)cn2)n[nH]1 + Cc1cccc(N(C)C(=O)C2C(O)CCN2c2nc(C)cc(C(F)(F)F)c2C#N)c1 came out in this test?
OUTPUT: active

INPUT: Hi, do you know how CCc1c2c(nc3ccc(O)cc13)-c1cc3c(c(=O)n1C2)COC(=O)[C@]3(O)CC + COC1C(OC(N)=O)C(O)C(Oc2ccc3c(O)c(NC(=O)c4ccc(O)c(CC=C(C)C)c4)c(=O)oc3c2C)OC1(C)C came out in this test?
OUTPUT: active

Attention now turns to another entry.
INPUT: Hi, do you know how Nc1ccn(C2OC(CO)C(O)C2(F)F)c(=O)n1 (stereo not drawn) + Nc1ccc(C#CCN(C(=O)Cc2ncc(C(F)(F)F)cc2C(F)(F)F)c2ccc(F)cc2)nn1 came out in this test?
OUTPUT: inactive

* * *

Kindly state viability, T/C for each of the entries shown.
# System: 379773-124-R-J2-PDC spheroid viability
# Assay Comment: Anticancer human tumor 379773-124-R-J2-PDC cell line growth inhibition [POLQ];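 further: spheroids exposed to drugs for seven days before readout; percent viability relative to DMSO vehicle control taken as 100%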
# Recorded Conditions: second compound 3.16 µM; first compound 0.0316 µM; stronger effect = lower value; spheroids with HUVEC and MSC
Give bare numbers, in %.

Here is how some compounds turned out for viability, T/C.
INPUT: Give viability, T/C (379773-124-R-J2-PDC spheroid viability) of the following compound: O=c1[nH]cc(F)c(=O)[nH]1 + COC1C(OC(N)=O)C(O)C(Oc2ccc3c(O)c(NC(=O)c4ccc(O)c(CC=C(C)C)c4)c(=O)oc3c2C)OC1(C)C
OUTPUT: 78.2

INPUT: Give viability, T/C (379773-124-R-J2-PDC spheroid viability) of the following compound: COc1cccc2c1C(=O)c1c(O)c3c(c(O)c1C2=O)CC(O)(C(=O)CO)CC3OC1CC(N)C(O)C(C)O1 (stereo not drawn) + COC1C(OC(N)=O)C(O)C(Oc2ccc3c(O)c(NC(=O)c4ccc(O)c(CC=C(C)C)c4)c(=O)oc3c2C)OC1(C)C
OUTPUT: 75.7

Now let's try a different one.
INPUT: Give viability, T/C (379773-124-R-J2-PDC spheroid viability) of the following compound: CC1COCCN1c1cc(-c2ccnn2C)c2ccnc(-c3ccn[nH]3)c2n1 (stereo not drawn) + Cc1cccc(N(C)C(=O)C2C(O)CCN2c2nc(C)cc(C(F)(F)F)c2C#N)c1
OUTPUT: 76.9

* * *

# Test system: 379773-124-R-J2-PDC spheroid viability
# Assay Comment: Anticancer human tumor 379773-124-R-J2-PDC cell line growth inhibition [POLQ];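 further: spheroids exposed to drugs for seven days before readout; percent viability relative to DMSO vehicle control taken as 100%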
# Recorded Conditions: second compound 10 µM; first compound 3.16 µM; stronger effect = lower value; spheroids with HUVEC and MSC
Measurement Kind: viability, T/C (%)
One number for each entry, in %.

Here is how some molecules turned out for viability, T/C.
INPUT: Which measured viability, T/C value corresponds to CC1COCCN1c1cc(C2(S(C)(=N)=O)CC2)nc(-c2ccnc3[nH]ccc23)n1 (stereo not given) + COC1C(OC(N)=O)C(O)C(Oc2ccc3c(O)c(NC(=O)c4ccc(O)c(CC=C(C)C)c4)c(=O)oc3c2C)OC1(C)C ?
OUTPUT: 34.5

INPUT: Which measured viability, T/C value corresponds to CC(C)n1c(=O)n(C)c2cnc3cc(F)c(-c4ccc(OCCCN5CCCCC5)nc4)cc3c21 + COC1C(OC(N)=O)C(O)C(Oc2ccc3c(O)c(NC(=O)c4ccc(O)c(CC=C(C)C)c4)c(=O)oc3c2C)OC1(C)C ?
OUTPUT: 80.7

INPUT: Which measured viability, T/C value corresponds to C=CC(=O)N1CCN(c2nc(=O)n(-c3c(C)ccnc3C(C)C)c3nc(-c4c(O)cccc4F)c(F)cc23)C(C)C1 (stereo not given) + Nc1ccc(C#CCN(C(=O)Cc2ncc(C(F)(F)F)cc2C(F)(F)F)c2ccc(F)cc2)nn1 ?
OUTPUT: 94.9

Dear reader, for each entry below, please note its viability, T/C.
1. O=C(Nc1ccc(O)c(NS(=O)(=O)c2ccc(F)cc2)c1)c1ccc(-c2ccccc2)cc1 + Nc1ccc(C#CCN(C(=O)Cc2ncc(C(F)(F)F)cc2C(F)(F)F)c2ccc(F)cc2)nn1
2. O=C(Nc1ccc(O)c(NS(=O)(=O)c2ccc(F)cc2)c1)c1ccc(-c2ccccc2)cc1 + Cc1cccc(N(C)C(=O)C2C(O)CCN2c2nc(C)cc(C(F)(F)F)c2C#N)c1

OUTPUT:
86.5
80.5
